Value source: ChEMBL document CHEMBL2407041

Each entry below carries its recorded IC50.
STUDY TARGET: Tyrosine-protein kinase Yes (Homo sapiens, UniProt P07947)
Sequence (P07947 whole entry): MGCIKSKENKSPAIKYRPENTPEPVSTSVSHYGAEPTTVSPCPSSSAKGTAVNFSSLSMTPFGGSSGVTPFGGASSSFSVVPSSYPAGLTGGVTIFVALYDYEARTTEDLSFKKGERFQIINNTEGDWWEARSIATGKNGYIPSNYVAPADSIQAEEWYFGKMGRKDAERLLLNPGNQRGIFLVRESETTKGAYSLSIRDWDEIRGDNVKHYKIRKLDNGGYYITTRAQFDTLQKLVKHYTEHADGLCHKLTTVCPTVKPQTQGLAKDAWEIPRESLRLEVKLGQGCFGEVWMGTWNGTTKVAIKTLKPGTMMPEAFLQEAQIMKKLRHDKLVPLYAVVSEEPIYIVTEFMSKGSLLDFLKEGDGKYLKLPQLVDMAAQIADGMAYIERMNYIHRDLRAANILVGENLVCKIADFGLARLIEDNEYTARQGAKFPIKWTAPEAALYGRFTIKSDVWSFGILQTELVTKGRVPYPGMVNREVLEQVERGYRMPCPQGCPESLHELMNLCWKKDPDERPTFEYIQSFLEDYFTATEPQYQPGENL
EXPERIMENT SUMMARY: Inhibition of Yes1 (unknown origin) assessed as kinase-dependent enzymatic production of ADP from ATP using coupled luminescence-based reaction by ADP-Glo kinase assay
# unit: nM | format: bare number

These recorded examples may help you get a feel for the data.
CN1CCC(CNc2ccc3ncc(-c4cccc(OC(F)(F)F)c4)n3n2)CC1	2670
CC(C)Oc1cc(Nc2nc(N[C@@H](C)c3ccc(F)cn3)ncc2Cl)n[nH]1	39.1

Please look at the following molecule next.
Need IC50, item c1cc(-c2cnn3cc(-c4ccc(OCCN5CCCCC5)cc4)cnc23)ccn1
196

###

EXPERIMENT SUMMARY: Antiproliferative activity against human Rh30 cells after 48 hrs by CellTiter-Glo luminescent assay
EXPERIMENTAL SETUP: SJRH30, 48 h
PROPERTY MEASURED: IC50 (nM)
# unit: nM | format: bare number

Need IC50, item CC(C)Oc1cc(Nc2nc(N[C@@H](C)c3ccc(F)cn3)ncc2Cl)n[nH]1
1800
